Molecular target: hNav 1.1 channel (Homo sapiens, UniProt P35498)
Construct: expressed in transfected cells
Test: Block of cloned hNav1.1 channel in CHO cells (IonWorks Quattro)
Format: cell-based
Settings: hNav1.1 in CHO cells; frequency-dependent block at 10 Hz (TP11); read-out: IC50 10 Hz block
Procedure: Data was corrected for leak current. The tonic block was calculated as: % Block (Tonic)=(1−ITP1,TA/ITP1,Control)×100%, where ITP1, Control and ITP1, TA are the inward peak Na^+ currents elicited by the TP1 in control and in the presence of a test article, respectively. 10 Hz Block—the frequency-dependent block at stimulation frequency 10 Hz was calculated as: […]
Counter-ions that a name gives are not always drawn.
Result Type: pIC50
Answer as the number alone; pIC50 is minus log10 of concentration in mol/L.

{"columns": ["Molecule", "pIC50"],
 "data": [
  ["Cc1cccc(C)c1OCC(C)NC(=O)C(N)Cc1c[nH]cn1 (centres unmarked) [Mexiletine histidine amide]", 4.38],
  ["Cc1cccc(C)c1OCC(C)NC(=O)[C@@H](N)CCCCNC(=N)N (some centres unmarked) [Mexiletine homoarginine amide, dihydrochloride]", 3.21],
  ["Cc1cccc(C)c1OCC(C)NC(=O)C1CC(O)CN1 (centres unmarked) [Mexiletine 4-hydroxyproline amide]", 4.43],
  ["Cc1cccc(C)c1OCC(C)NC(=O)C(N)C1CC1 (centres unmarked) [Mexiletine cyclopropyl glycine amide]", 3.77],
  ["CNCC(=O)NC(C)COc1c(C)cccc1C (centres unmarked) [Mexiletine sarcosine amide]", 4.41],
  ["Cc1cccc(C)c1OCC(C)NC(=O)C(N)CCCNC(N)=O (centres unmarked) [Mexiletine citrulline amide]", 3.45]
]}

From here, focus on the item given below.
Param item = Cc1cccc(C)c1OCC(C)NC(=O)C(C)CN (stereo not drawn) [Mexiletine 2-methyl β alanine amide] ; retrieve measured pIC50.
4.29
